System: rat small intestinal α-glucosidases
test summary: rat small intestinal α-glucosidase inhibitory assay (pNPG)
Type: biochemical
Procedure: Aliquots of 0–10 μL of testing materials (triplicated) were incubated for 10 min with 20 μL of an enzyme solution of yeast α-glucosidase (Sigma-Aldrich, 0.4 units/mL in PBS) or mammalian α-glucosidase (Sigma-Aldrich, 40 mg). […] After incubation with the enzymes 10 μL of p-nitrophenyl α-D-glucopyranoside (pNPG 5 mM and 10 mM in PSB, respectively) were added and then incubated for 20 min at 37 °C. Then, absorbances were determined in a BIO-RAD microplate reader model 680 at 405 nm.
Parameter threshold = 70%. Response is 1 when Rat Small Intestinal Maximum Inhibition (%) meets or exceeds it, else -1.

Tell me whether Rat Small Intestinal Maximum Inhibition (%) is at least 70% here: O=c1c(O[C@@H]2O[C@H](CO)[C@H](O)[C@H](O)[C@H]2O)c(-c2ccc(O)c(O)c2)oc2cc(O)cc(O)c12 [Compound 3, hyperoside]
-1

// inclusive: Rat Small Intestinal Maximum Inhibition (%) at least 70%? input: C[C@H]1O[C@H](O[C@H]2[C@H](O)[C@@H](O)[C@@H](O[C@H]3[C@H](O)[C@@H](O)C(O)O[C@@H]3CO)O[C@@H]2CO)[C@H](O)[C@@H](O)[C@@H]1N[C@H]1C=C(CO)[C@@H](O)[C@H](O)[C@H]1O (some centres unmarked) [Acarbose, acarbose, reference compound]
1

Textbook exercise: given the entry CC(=O)c1ccc(O[C@@H]2O[C@H](CO)[C@@H](O)[C@H](O)[C@H]2O)cc1 [Compound 7, picein] , state whether its Rat Small Intestinal Maximum Inhibition (%) is greater than or equal to 70%.
-1

Check the entry O=C(OC[C@H]1O[C@@H](Oc2c(-c3ccc(O)c(O)c3)oc3cc(O)cc(O)c3c2=O)[C@H](O)[C@@H](O)[C@H]1O)c1ccccc1 [Compound 6] : does Rat Small Intestinal Maximum Inhibition (%) equal or exceed 70%?
1

====

Would you kindly list pIC50 for each of these molecules?
study target: rat small intestinal α-glucosidases
test summary: rat small intestinal α-glucosidase inhibitory assay (pNPG)
Assay type: biochemical
test settings: mean ± SD of triplicate experiments; read-out: Rat Small Intestinal IC50
By convention, pIC50 is the negative base-10 log of a molar concentration.

Lab book: pIC50 of O=c1c(O[C@@H]2O[C@H](CO)[C@@H](O)[C@H](O)[C@H]2O)c(-c2ccc(O)c(O)c2)oc2cc(O)cc(O)c12 [Compound 4, isoquercetin] noted as 2.79

Please fill in: pIC50 reported for C[C@H]1O[C@H](O[C@H]2[C@H](O)[C@@H](O)[C@@H](O[C@H]3[C@H](O)[C@@H](O)C(O)O[C@@H]3CO)O[C@@H]2CO)[C@H](O)[C@@H](O)[C@@H]1N[C@H]1C=C(CO)[C@@H](O)[C@H](O)[C@H]1O (some centres unmarked) [Acarbose, acarbose, reference compound] = 4.00

CC(=O)c1ccc(O[C@@H]2O[C@H](CO)[C@@H](O)[C@H](O)[C@H]2O)cc1 [Compound 7, picein] has a reported pIC50 of 1.97

Entry O=C(OC[C@H]1O[C@@H](Oc2c(-c3ccc(O)c(O)c3)oc3cc(O)cc(O)c3c2=O)[C@H](O)[C@@H](O)[C@H]1O)c1ccccc1 [Compound 6] ; pIC50 = 3.37

# molecule O=c1c(O[C@@H]2O[C@H](CO)[C@H](O)[C@H](O)[C@H]2O)c(-c2ccc(O)c(O)c2)oc2cc(O)cc(O)c12 [Compound 3, hyperoside] ; its pIC50 = 2.70

====

study target: rat small intestinal α-glucosidases
test summary: rat small intestinal α-glucosidase inhibitory assay (pNPG)
Type: biochemical
test settings: read-out: IC50, mammalian enzyme
property name: pIC50
Note: pIC50 values are expressed as the negative base-10 logarithm of concentration in M.

For record "O=C(OC[C@H]1O[C@@H](Oc2c(-c3ccc(O)c(O)c3)oc3cc(O)cc(O)c3c2=O)[C@H](O)[C@@H](O)[C@H]1O)c1ccccc1" the listed pIC50 is 3.36
